experimental-conditions: in n-propanol, 293.15 K
property-name: solubility (mole fraction)

Q: What solubility (mole fraction) value was documented for this compound, Cn1cc([N+](=O)[O-])cn1 ?
Ans: 0.00259

###

experimental-conditions: in ethanol, 303.15 K
property-name: solubility (mole fraction)
Write the number on its own, no unit after it.

Q: What solubility (mole fraction) value was documented for this compound, Cn1cc([N+](=O)[O-])cn1 ?
Ans: 0.00633

###

experimental-conditions: in n-butanol, 298.15 K
property-name: solubility (mole fraction)
Write the number on its own, no unit after it.

Q: What solubility (mole fraction) value was documented for this compound, Cn1cc([N+](=O)[O-])cn1 ?
Ans: 0.00438
